Test system: HL-60
Test: NCI tumour cell line growth inhibition, 48 h
Calls of active or inactive are those of the source. Rule as the data show it: active = GI50 up to about 1.1 µM and inactive = higher.
Mark one answer only. Choices: active, inactive

• Nc1ncnc2c1ncn2C1OC(CSCC(F)(F)F)C(O)C1O (stereo not given) = inactive
• C=CCN(c1cc(OC)c2[nH]c(C(=O)O)c(C)c2c1[N+](=O)[O-])S(C)(=O)=O = inactive
• CCCNC1=C(C)C(=O)C2=C(C1=O)[C@H](COC(N)=O)[C@]1(OC)[C@@H]3N[C@@H]3CN21 = active
• Oc1c(C(Nc2ccccn2)c2ccccc2)ccc2cccnc12 (stereo not given) = inactive
• CN(C)C(=S)/N=c1\ss/c(=N\S(=O)(=O)c2ccccc2)n1C = inactive
• CC1(C)C2CCC13CS(=O)(=O)N1O[C@]13C(=O)O2 (stereo not given in full) = inactive
• COCCN(C(C)=O)C1CCC2(SCCS2)c2[nH]c3ccccc3c21 (stereo not given) = inactive
• C=C1C(=O)OC2/C=C(\C)C(O)CC(O)C(C)(O)CC(OC(=O)/C(C)=C/C)C12 (stereo not given) = inactive
• NC(=O)CCCC(NCc1c2ccccc2nc2ccccc12)C(=O)O (stereo not given) = inactive

As a next step, examine the compound that follows.
Outcome logged for CC(=O)N(C)C=C1C(=O)N(C)C(=O)N(C)C1=O in this assay: inactive
